target-or-system: furin, P09958;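 also: purified furin at 1:10 enzyme:substrate in 50 mM HEPES pH 7.5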
Sequence (P09958 whole entry): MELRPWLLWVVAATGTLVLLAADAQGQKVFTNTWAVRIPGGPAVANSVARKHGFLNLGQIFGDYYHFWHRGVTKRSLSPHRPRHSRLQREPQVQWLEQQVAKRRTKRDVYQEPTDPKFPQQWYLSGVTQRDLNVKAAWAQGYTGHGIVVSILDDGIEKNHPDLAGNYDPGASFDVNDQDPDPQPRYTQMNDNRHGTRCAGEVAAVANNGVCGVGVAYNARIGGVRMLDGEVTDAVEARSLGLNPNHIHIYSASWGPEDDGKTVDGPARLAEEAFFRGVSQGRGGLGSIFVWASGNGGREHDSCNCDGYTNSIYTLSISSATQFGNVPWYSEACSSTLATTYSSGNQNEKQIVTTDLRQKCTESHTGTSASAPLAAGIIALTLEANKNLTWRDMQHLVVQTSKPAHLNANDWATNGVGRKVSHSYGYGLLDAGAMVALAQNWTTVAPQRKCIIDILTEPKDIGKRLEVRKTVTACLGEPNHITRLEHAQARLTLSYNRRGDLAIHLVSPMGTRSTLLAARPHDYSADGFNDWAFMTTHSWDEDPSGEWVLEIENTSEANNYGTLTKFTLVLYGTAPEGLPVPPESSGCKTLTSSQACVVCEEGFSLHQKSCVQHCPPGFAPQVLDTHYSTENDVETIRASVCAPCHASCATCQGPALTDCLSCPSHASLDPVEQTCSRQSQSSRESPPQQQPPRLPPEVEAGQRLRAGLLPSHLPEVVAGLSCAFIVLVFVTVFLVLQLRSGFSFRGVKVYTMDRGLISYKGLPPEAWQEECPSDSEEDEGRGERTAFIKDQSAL
experimental-details: furin cleavage Z-score vs untreated control; higher = more cleavage, active = 3.5 or more, inactive = 1 or less, 8 variable residues between constant flanks
experimental-context: 30 min
Some of the results follow. No count for the full screen is at hand.
property: furin cleavage Z-score
# answer = number (no unit)

[[record]]
sequence_string = "CASRVRTGRSAGNASASA [FS-1417]"
value_reported = 7.69


State its furin cleavage Z-score: CAVCARAQAPAGNASASA [HC957] 0.901

Give furin cleavage Z-score for the following sequence: CAMLAEQFKQAGNASASA [HC1022] 0.514

Look up and state reported furin cleavage Z-score for CAMEENSQHLAGNASASA [HC18] 2.04
